molecular target: Calpain 1 (Homo sapiens, UniProt P07384); assay: Inhibition of Calpain 1 by [3H]acetyl-casein assay; type: protein-complex assay
Sequence (P04632 whole entry): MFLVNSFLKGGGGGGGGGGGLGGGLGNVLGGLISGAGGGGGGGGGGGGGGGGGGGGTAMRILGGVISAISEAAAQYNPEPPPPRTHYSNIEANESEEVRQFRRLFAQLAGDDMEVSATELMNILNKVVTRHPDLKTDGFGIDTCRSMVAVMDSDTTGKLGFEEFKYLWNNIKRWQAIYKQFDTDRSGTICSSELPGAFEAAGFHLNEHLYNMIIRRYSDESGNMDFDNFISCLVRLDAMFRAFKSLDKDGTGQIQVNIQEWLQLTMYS
Sequence (P07384 whole entry): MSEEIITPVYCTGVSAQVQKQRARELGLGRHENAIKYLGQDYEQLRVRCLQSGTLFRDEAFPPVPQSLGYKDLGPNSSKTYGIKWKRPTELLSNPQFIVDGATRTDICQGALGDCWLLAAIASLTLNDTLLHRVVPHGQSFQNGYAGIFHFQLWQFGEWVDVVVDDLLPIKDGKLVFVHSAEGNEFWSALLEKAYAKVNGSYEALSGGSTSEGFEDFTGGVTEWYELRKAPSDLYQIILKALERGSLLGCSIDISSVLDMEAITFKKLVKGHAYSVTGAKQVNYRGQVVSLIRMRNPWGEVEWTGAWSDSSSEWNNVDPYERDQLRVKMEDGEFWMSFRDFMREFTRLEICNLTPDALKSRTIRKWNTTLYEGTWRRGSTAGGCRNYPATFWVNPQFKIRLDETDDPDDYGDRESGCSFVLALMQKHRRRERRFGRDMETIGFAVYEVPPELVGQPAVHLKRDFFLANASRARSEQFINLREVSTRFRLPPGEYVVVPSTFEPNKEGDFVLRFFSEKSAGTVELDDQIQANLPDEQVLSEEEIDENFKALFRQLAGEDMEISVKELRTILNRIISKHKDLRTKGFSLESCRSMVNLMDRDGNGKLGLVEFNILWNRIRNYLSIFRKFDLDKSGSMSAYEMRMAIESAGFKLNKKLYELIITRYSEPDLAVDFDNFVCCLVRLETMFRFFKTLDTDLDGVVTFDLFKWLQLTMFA
Square brackets hold non-standard residues; d marks the D form. Peptide text beside a SMILES is read from it. * marks the point of attachment. ξ: configuration not given here. 1Nal = N[C@@H](Cc1cccc2ccccc12)C(=O)O; ξTle = CC(C)(C)C(N)C(=O)O; Cbz = O=C(OCc1ccccc1)*
hey, just use t if measured IC50 is less than 100 nM, otherwise f

• CC(C)C[C@H](NC(=O)OCc1ccccc1)C(=O)N[C@H](C=O)Cc1ccc(O)cc1 (Cbz-Leu-Tyr-aldehyde) = t
• CC(C)(C)C(NC(=O)OCc1ccccc1)C(=O)N[C@H](C=O)Cc1ccccc1 (some centres not stated) (Cbz-[ξTle]-Phe-aldehyde) = f
• O=C[C@H](Cc1ccccc1)NC(=O)[C@H](Cc1cccc2ccccc12)NC(=O)OCc1ccccc1 (Cbz-[1Nal]-Phe-aldehyde) = f
• CC(C)[C@H](NC(=O)OCc1ccccc1)C(=O)N1CCC[C@H]1C=O (Cbz-Val-Pro-aldehyde) = f
• O=C[C@H](Cc1ccccc1)NC(=O)[C@H](Cc1ccccc1)NC(=O)OCc1ccccc1 (Cbz-Phe-Phe-aldehyde) = f

Consider the additional compound presented here.
Determine whether this compound shows IC50 lower than 100 nM (ties excluded): CC(C)C[C@H](NC(=O)OCc1ccccc1)C(=O)N[C@H](C=O)Cc1ccccc1 (Cbz-Leu-Phe-aldehyde)
t

---

molecular target: Calpain 1 (Homo sapiens); assay: Inhibition of Calpain 1 by [3H]acetyl-casein assay
Square brackets hold non-standard residues; d marks the D form. Peptide text beside a SMILES is read from it. * marks the point of attachment. 1Nal = N[C@@H](Cc1cccc2ccccc12)C(=O)O; hPhe = N[C@@H](CCc1ccccc1)C(=O)O; Cbz = O=C(OCc1ccccc1)*
What pIC50 was measured for each of the following?
Give bare numbers, as −log10 of the molar value.

* CC(C)[C@H](NC(=O)OCc1ccccc1)C(=O)N[C@H](C=O)CCc1ccccc1 (Cbz-Val-[hPhe]-aldehyde) | 7.00

Please give pIC50 for each item listed below.
1. O=C[C@H](Cc1ccccc1)NC(=O)[C@H](CCc1ccccc1)NC(=O)OCc1ccccc1 (Cbz-[hPhe]-Phe-aldehyde)
2. CC(C)[C@H](NC(=O)OCc1ccccc1)C(=O)N[C@H](C=O)Cc1cccc2ccccc12 (Cbz-Val-[1Nal]-aldehyde)
3. CC(C)[C@H](NC(=O)OCc1ccccc1)C(=O)N[C@H](C=O)Cc1ccc(O)cc1 (Cbz-Val-Tyr-aldehyde)

1. 6.57
2. 7.00
3. 7.60

---

target: Calpain-1 catalytic subunit (Homo sapiens); experiment: Rate of catalysis as a measure of ability to serve as substrate of Calpain
reported_property: k cat (s⁻¹)
Answers are plain numbers, in s⁻¹.

Solved cases below.
* Cc1cc(=O)oc2cc(NC(=O)[C@H](NC(=O)[C@H](CC(C)C)NC(=O)[C@H](CC(C)C)NC(=O)CCC(=O)O)C(C)C)ccc12 | 0.29
* Cc1cc(=O)oc2cc(NC(=O)[C@H](CCCN=C(N)N)NC(=O)[C@H](CC(C)C)NC(=O)OCc3ccccc3)ccc12 | 0.02

Would you kindly look at the next entry?
Fill in the blank: the reported k cat of Cc1cc(=O)oc2cc(NC(=O)[C@@H](CCCCN)NC(=O)[C@H](CC(C)C)NC(=O)[C@@H](NC(=O)OC(C)(C)C)C(C)C)ccc12 is ____.
0.49

---

target: Procathepsin L (Homo sapiens); assay: Inhibition of cathepsin L (fluorogenic assay), apparent second order rate constant
reported_property: k obs / 1 (M⁻¹ s⁻¹)
Answers are plain numbers, in M⁻¹ s⁻¹.

• CC(C)CC(NC(=O)[C@@H](C)NC(=O)OCc1ccccc1)C(=O)NC(Cc1ccccc1)C(=O)COC(=O)c1c(F)cccc1F (some centres undefined) = 300
• CC(C)CC(NC(=O)OCc1ccccc1)C(=O)NC(Cc1ccc(O)cc1)C(=O)COC(=O)c1c(Cl)cccc1Cl (centres undefined) = 33000

Please give k obs / 1 for each item listed below.
1. CC(C)C(NC(=O)OCc1ccccc1)C(=O)NC(Cc1ccccc1)C(=O)COC(=O)c1c(Cl)ccc(S(=O)(=O)CCN2CCOCC2)c1Cl (centres undefined)
2. CC(C)CC(NC(=O)OCc1ccccc1)C(=O)NC(Cc1ccccc1)C(=O)COC(=O)c1c(Cl)cccc1Cl (centres undefined)

1. 63000
2. 2700

---

target: Calpain 1 (Homo sapiens) (UniProt P04632+P07384); experiment: Apparent second order rate constant for inhibition of calpain-1 by fluorogenic assay.; type: protein-complex assay
Peptide text beside a SMILES is read from it. * marks the point of attachment. Cbz = O=C(OCc1ccccc1)*; CH2Cl = ClC*
What k obs / 1 was measured for each of the following?

Solved cases below.
* CC(NC(=O)OCc1ccccc1)C(=O)NCC(=O)COC(=O)c1c(Cl)cccc1Cl (stereo not given) | < 500 M⁻¹ s⁻¹
* O=C(CNC(=O)OCc1ccccc1)NC(Cc1ccccc1)C(=O)COC(=O)c1c(Cl)ccc(S(=O)(=O)NCC(=O)OCc2ccccc2)c1Cl (stereo not given) | 900 M⁻¹ s⁻¹

Please give k obs / 1 for each item listed below.
1. CC(C)CC(NC(=O)OCc1ccccc1)C(=O)NC(Cc1ccc(O)cc1)C(=O)COC(=O)c1c(Cl)ccc(S(=O)(=O)N2CCOCC2)c1Cl (stereo not given)
2. CC(C)CC(NC(=O)OCc1ccccc1)C(=O)NC(Cc1ccccc1)C(=O)CCl (stereo not drawn) (Cbz-Leu-Phe-CH2Cl; configuration not given here)
3. CC(=O)Nc1cccc(Cl)c1C(=O)OCC(=O)CNC(=O)C(CC(C)C)NC(=O)OCc1ccccc1 (stereo not given)
4. CC(C)CC(NC(=O)OCc1ccccc1)C(=O)NCC(=O)COC(=O)c1c(Cl)ccc(S(=O)(=O)N2CCOCC2)c1Cl (stereo not given)
5. CC(=O)Nc1cccc(Cl)c1C(=O)OCC(=O)C(C)NC(=O)C(CC(C)C)NC(=O)OCc1ccccc1 (stereo not given)
6. CC(C)CC(NC(=O)OC(C)(C)C)C(=O)NC(Cc1ccccc1)C(=O)COC(=O)c1c(F)cccc1F (stereo not given)
7. CC(C)CC(NC(=O)OCc1ccccc1)C(=O)NC(Cc1ccc(O)cc1)C(=O)CCl (stereo not drawn) (Cbz-Leu-Tyr-CH2Cl; configuration not given here)
8. CC(C)C[C@H](NC(=O)[C@H]1O[C@@H]1C(=O)O)C(=O)NCCCCN=C(N)N

["14000 M⁻¹ s⁻¹", "5500 M⁻¹ s⁻¹", "600 M⁻¹ s⁻¹", "23000 M⁻¹ s⁻¹", "500 M⁻¹ s⁻¹", "8000 M⁻¹ s⁻¹", "1500 M⁻¹ s⁻¹", "2500 M⁻¹ s⁻¹"]

---

target: UniProt:P07858; test: Apparent second order rate constant for inhibition of cathepsin B by fluorogenic assay.
Peptide text beside a SMILES is read from it. * marks the point of attachment. Cbz = O=C(OCc1ccccc1)*; CH2Cl = ClC*
What k obs / 1 was measured for each of the following?
Quote the value and follow it with the unit of measurement.

- COC(=O)N[C@H](C)C(=O)NC(CC(C)C)C(=O)NC(Cc1ccccc1)C(=O)COC(=O)c1c(Cl)ccc(OCCN2CCOCC2)c1Cl (stereo partly drawn): 4700 M⁻¹ s⁻¹
- CC(C)C[C@H](NC(=O)CNC(=O)OCc1ccccc1)C(=O)N[C@@H](Cc1ccccc1)C(=O)CCl (Cbz-Gly-Leu-Phe-CH2Cl): 2700 M⁻¹ s⁻¹

Fill in the blank: the reported k obs / 1 of CC(C)C(NC(=O)OCc1ccccc1)C(=O)NC(Cc1ccccc1)C(=O)COC(=O)c1c(Cl)ccc(S(=O)(=O)CCN2CCOCC2)c1Cl (stereo not drawn) is ____.
5500 M⁻¹ s⁻¹
